# STUDY TARGET: human receptor OR52N5 (Homo sapiens)
# Construct: the human receptors were tagged with a Rho-FLAG® tag combination
# Sequence (Q8NH56 whole entry): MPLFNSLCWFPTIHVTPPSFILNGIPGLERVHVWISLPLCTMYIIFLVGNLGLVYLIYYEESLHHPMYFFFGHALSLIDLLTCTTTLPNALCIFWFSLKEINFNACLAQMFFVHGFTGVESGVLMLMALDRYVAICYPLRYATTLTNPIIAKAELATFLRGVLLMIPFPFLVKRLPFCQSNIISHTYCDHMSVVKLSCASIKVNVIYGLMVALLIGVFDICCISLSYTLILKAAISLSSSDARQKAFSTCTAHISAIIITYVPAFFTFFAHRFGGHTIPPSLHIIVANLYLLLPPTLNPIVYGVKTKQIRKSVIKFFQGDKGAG
# ASSAY SUMMARY: cell-based dose-response, cAMP increase by HTRF, HEK293T cells (endogenous RTP1 activated) co-transfected with human Golf, Rho-FLAG tagged receptor
# TEST SETTINGS: FIG. 2, Example 2, SEQ ID NO: 24
MEASURED QUANTITY: EC50 (µM)
State just the number; it will be interpreted in µM.

Q) Would you kindly share the measured EC50 for CSSSC [DMTS, dimethyl trisulfide] ?
A) 10

###

# STUDY TARGET: human receptor OR52N2 (Homo sapiens, UniProt Q8NGI0)
# Construct: The receptors were tagged with a FLAG®-Rho tag combination
# Sequence (Q8NGI0 1-321): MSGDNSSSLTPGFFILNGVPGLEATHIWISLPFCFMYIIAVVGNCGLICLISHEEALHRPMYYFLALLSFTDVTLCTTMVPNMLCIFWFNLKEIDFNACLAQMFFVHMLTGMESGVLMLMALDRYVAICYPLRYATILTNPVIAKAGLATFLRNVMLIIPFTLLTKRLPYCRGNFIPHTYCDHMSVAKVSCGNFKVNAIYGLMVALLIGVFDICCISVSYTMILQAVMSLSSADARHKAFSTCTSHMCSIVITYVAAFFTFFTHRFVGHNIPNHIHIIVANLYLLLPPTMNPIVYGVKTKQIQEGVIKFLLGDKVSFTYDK
# ASSAY SUMMARY: cell-based dose-response, Ca2+ increase (Calcium 5 dye, FLIPR), HEK293T line stably expressing FLAG-Rho tagged receptor with human Gα15
# TEST SETTINGS: FIG. 3, Example 3, SEQ ID NO: 38, stable HEK293T
MEASURED QUANTITY: EC50 (µM)
State just the number; it will be interpreted in µM.

Q) Would you kindly share the measured EC50 for CSSSC [DMTS, dimethyl trisulfide] ?
A) 5

###

Entries and their pEC50 values follow.
# STUDY TARGET: mouse receptor Olfr169 (Mus musculus)
# Construct: cAMP HTRF
# Sequence (Q7TS53 1-313): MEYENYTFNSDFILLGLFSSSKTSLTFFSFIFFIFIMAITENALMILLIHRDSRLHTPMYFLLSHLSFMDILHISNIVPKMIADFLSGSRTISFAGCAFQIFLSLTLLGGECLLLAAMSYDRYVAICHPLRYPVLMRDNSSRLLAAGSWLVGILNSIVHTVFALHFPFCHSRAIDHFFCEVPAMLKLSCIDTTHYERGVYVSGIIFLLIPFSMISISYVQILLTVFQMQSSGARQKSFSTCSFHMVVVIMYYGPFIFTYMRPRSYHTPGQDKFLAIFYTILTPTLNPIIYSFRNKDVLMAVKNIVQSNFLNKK
# ASSAY SUMMARY: cell-based dose-response, cAMP increase by HTRF, HEK293T cells (endogenous RTP1 activated) co-transfected with human Golf, Lucy-FLAG-Rho tagged receptor
# TEST SETTINGS: FIG. 5, Example 5, SEQ ID NO: 10
By convention, pEC50 is the negative base-10 log of a molar concentration.

[[record]]
compound = "CSSC [DMDS, dimethyl disulfide]"
study_target = "mouse receptor Olfr169 (Mus musculus)"
quantitative_result = 3.99


// next entry
Q) Would you kindly share the measured pEC50 for CSSSC [DMTS, dimethyl trisulfide] ?
A) 4.64

###

# STUDY TARGET: mouse receptor Olfr1093 (Mus musculus)
# Construct: cAMP HTRF
# Sequence (B2RR12 1-322): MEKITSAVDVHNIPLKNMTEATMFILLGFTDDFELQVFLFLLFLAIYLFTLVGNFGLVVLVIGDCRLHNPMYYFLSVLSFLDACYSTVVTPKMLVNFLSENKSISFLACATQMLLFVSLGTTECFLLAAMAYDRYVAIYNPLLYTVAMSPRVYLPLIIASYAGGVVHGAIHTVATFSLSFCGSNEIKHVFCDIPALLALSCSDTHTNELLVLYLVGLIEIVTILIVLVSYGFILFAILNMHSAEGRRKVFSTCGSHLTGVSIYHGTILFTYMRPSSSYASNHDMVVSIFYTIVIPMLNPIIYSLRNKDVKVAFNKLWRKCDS
# ASSAY SUMMARY: cell-based dose-response, cAMP increase by HTRF, HEK293T cells (endogenous RTP1 activated) co-transfected with human Golf, Lucy-FLAG-Rho tagged receptor
# TEST SETTINGS: FIG. 5, Example 5, SEQ ID NO: 4
Entries and their EC50 values follow.

[[record]]
compound = "CSSSC [DMTS, dimethyl trisulfide]"
measured_quantity = "EC50"
result = "62 µM"


// next entry
Q) Would you kindly share the measured EC50 for CSSC [DMDS, dimethyl disulfide] ?
A) 458 µM

Values compiled from patent US11787847B2.
